# Tested on: ornithine decarboxylase (ODC)
# protocolDetails: suppression of TPA induced ornithine decarboxylase (ODC) in mouse skin
# Type: in vivo
# experimentalParameters: 34 nmol retinoid + TPA; third experiment (standard trans-retinoic acid)
metric: ODC Activity

molecule	ODC Activity
COC(=O)c1ccc(/C=C(\C)c2ccc3c(c2)C(C)(C)CO3)cc1	1.5 ± 0.4 nmol CO2 /60 min/mg protein
CC1=C(/C=C/C(C)=C/C=C/C(C)=C/C(=O)O)C(C)(C)CCC1 [trans-retinoic acid, all trans-retinoic acid, reference compound]	1.0 ± 0.1 nmol CO2 /60 min/mg protein
C/C(=C\c1ccc(CO)cc1)c1ccc2c(c1)C(C)(C)CCO2	1.7 ± 0.1 nmol CO2 /60 min/mg protein

# next molecule below
Query: Return ODC Activity (reported value) for this molecule: C/C(=C\c1ccc(C=O)cc1)c1ccc2c(c1)C(C)(C)CCO2
Response: 3.5 ± 0.2 nmol CO2 /60 min/mg protein
